- Tested on: GFP-transfected Plasmodium berghei ANKA strain
- runDescription: Plasmodium berghei mouse model, standard Peter's four-day test
- Assay type: in vivo
- recordedConditions: NMRI female mice, oral, 1 mg/kg 4x (once a day for four days), parasitaemia 24 h after last dose
observedProperty: % Reduction in parasitaemia (%)
Give a bare numeral; the unit % is implied.

Query :: Look up and report measured % Reduction in parasitaemia for this entry: O=C(NCCN1CCCC1)c1cc(-c2ccc(CN3CCOCC3)cc2F)nc2ccc(F)cc12 [Example 7]
Result :: 99.9

Query :: Respond only with % Reduction in parasitaemia recorded for O=C(NCCN1CCCC1)c1cc(-c2ccc(CN3CCOCC3)cc2)nc2ccc(F)cc12 [Example 1]
Result :: 99.9

Query :: For the molecule O=C(NCCN1CCCC1)c1cc(-c2ccc(CN3CCOCC3)c(F)c2)nc2ccc(F)cc12 [Example 6] , report % Reduction in parasitaemia.
Result :: 99.8

Query :: Look up and report measured % Reduction in parasitaemia for this entry: O=C(NCCN1CCCC1)c1cc(-c2ccc(CN3CCS(=O)(=O)CC3)cc2)nc2ccc(F)cc12 [Example 9]
Result :: 99.0

This collection of values is drawn from patent US9115088B2.
